Test description: In Vivo Pharmacokinetics Assay in mouse
Conditions: male, Balb/c, plasma, IV 2 mg/kg
Experimental endpoint: clearance at 24 h (mL/min/kg)

Use these answered entries as a reference point.
Quick note, clearance at 24 h for `COC(=O)N[C@@H](C)CNc1nccc(-c2cn(C(C)C)nc2-c2cccc(NS(C)(=O)=O)c2F)n1` landed at 41

Lab book: clearance at 24 h of `COC(=O)N[C@@H](C)CNc1nccc(-c2cn(C(C)C)nc2-c2cc(Cl)cc(NS(C)(=O)=O)c2F)n1` noted as 4.3

The recorded clearance at 24 h for entry `COC(=O)N[C@@H](C)CNc1nccc(-c2cn(C(C)C)nc2-c2c(F)ccc(NS(C)(=O)=O)c2F)n1` equals 61

A. CCCS(=O)(=O)Nc1ccc(F)c(-c2nn(C(C)C)cc2-c2ccnc(NC[C@H](C)NC(=O)OC)n2)c1F
B. CCCS(=O)(=O)Nc1cc(Cl)cc(-c2nn(C(C)C)cc2-c2ccnc(NC[C@H](C)NC(=O)OC)n2)c1F
C. CCCS(=O)(=O)Nc1cccc(-c2nn(C(C)C)cc2-c2ccnc(NC[C@H](C)NC(=O)OC)n2)c1F
Exercise: Number of compounds to sort: 3. Sort criterion: clearance at 24 h, ascending. Would you mind listing the labels in the order requested?
Key: B, C, A

* * *

Test description: In Vivo Pharmacokinetics Assay in mouse
Conditions: male, Balb/c, plasma, 10 mg/kg, PO/IV 10/2 mg/kg
Experimental endpoint: bioavailability at 24 h (%)

response.value for COC(=O)N[C@@H](C)CNc1nccc(-c2cn(C(C)C)nc2-c2cc(Cl)cc(NS(C)(=O)=O)c2F)n1 [Compound 9] (field: bioavailability at 24 h) = 43

1. COC(=O)N[C@@H](C)CNc1nccc(-c2cn(C(C)C)nc2-c2c(F)ccc(NS(C)(=O)=O)c2F)n1 [Compound 6]
2. CCCS(=O)(=O)Nc1ccc(F)c(-c2nn(C(C)C)cc2-c2ccnc(NC[C@H](C)NC(=O)OC)n2)c1F [Compound 7]
Exercise: Higher bioavailability at 24 h: 1 or 2 ? Response format: the label of the selected entry.
Key: 1

* * *

Test description: In Vivo Pharmacokinetics Assay in mouse
Conditions: male, Balb/c, plasma, 5 mg/kg, PO/IV 5/2 mg/kg, n = 1
Experimental endpoint: bioavailability at 24 h (%)

A. CCCS(=O)(=O)Nc1cccc(-c2nn(C(C)C)cc2-c2ccnc(NC[C@H](C)NC(=O)OC)n2)c1F
B. CCCS(=O)(=O)Nc1cc(Cl)cc(-c2nn(C(C)C)cc2-c2ccnc(NC[C@H](C)NC(=O)OC)n2)c1F
Exercise: Among A and B , which shows a numerically higher bioavailability at 24 h result? Write down the label of the entry you select.
Key: B
(B: 46%, A: 6%)

* * *

Assayed system: B-Raf V600E (Homo sapiens (Human), UniProt P15056, V600E)
Sequence (P15056 whole entry V600E): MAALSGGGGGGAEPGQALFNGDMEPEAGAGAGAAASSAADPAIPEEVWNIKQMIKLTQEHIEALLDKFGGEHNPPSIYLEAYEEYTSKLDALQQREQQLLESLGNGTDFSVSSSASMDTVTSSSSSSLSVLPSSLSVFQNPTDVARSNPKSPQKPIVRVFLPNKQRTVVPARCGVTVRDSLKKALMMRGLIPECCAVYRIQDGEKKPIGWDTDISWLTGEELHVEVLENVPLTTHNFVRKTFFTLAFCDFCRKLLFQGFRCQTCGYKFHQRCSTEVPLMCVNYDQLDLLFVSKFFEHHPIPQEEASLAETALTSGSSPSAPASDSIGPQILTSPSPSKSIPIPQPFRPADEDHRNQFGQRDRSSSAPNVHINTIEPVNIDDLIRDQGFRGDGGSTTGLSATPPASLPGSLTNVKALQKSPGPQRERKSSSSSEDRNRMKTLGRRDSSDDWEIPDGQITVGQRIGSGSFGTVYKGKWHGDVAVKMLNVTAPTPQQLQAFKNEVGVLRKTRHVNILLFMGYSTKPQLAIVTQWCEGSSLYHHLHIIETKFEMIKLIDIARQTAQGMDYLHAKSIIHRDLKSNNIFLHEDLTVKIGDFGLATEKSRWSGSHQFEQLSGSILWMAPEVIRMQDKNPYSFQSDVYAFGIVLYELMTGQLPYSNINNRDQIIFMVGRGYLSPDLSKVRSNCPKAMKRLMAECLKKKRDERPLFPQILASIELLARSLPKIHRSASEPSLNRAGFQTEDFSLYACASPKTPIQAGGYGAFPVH
Test description: B-Raf V600E/Mek Amplified Luminescence Proximity Homogeneous Assay (B-Raf V600E biochemical)
Conditions: read-out: BRAF V600E biochemical IC50
Experimental endpoint: IC50 (nM)

The recorded IC50 for `CC(C)n1cc(-c2ccnc(N)n2)c(-c2cc(Cl)cc(NS(C)(=O)=O)c2F)n1` is 4.3

// IC50 value for `COC(=O)N[C@@H](C)CNc1nccc(-c2cn(C(C)C)nc2-c2ccnc(NS(C)(=O)=O)c2F)n1` : 24

What the record says about `COC(=O)NC[C@H](C)Nc1nccc(-c2cn(C(C)C)nc2-c2cc(Cl)cc(NS(C)(=O)=O)c2F)n1` : IC50 is 2.9

Measured IC50 of `COC(=O)N[C@@H](C)CNc1nccc(-c2cn(C(C)C)nc2-c2ccc(F)c(NS(C)(=O)=O)c2F)n1` : 6.1

Consider `COC(=O)N[C@@H](C)CNc1nccc(-c2c[nH]nc2-c2cc(Cl)cc(NS(C)(=O)=O)c2F)n1` . Its measured IC50 is 0.8

Just so you know, measured IC50 for `COC(=O)N[C@@H](C)CNc1nccc(-c2cn(C(C)C)nc2-c2cc(NS(C)(=O)=O)c(C)c(OC)c2)n1` came out at 390

Measured IC50 of `COC(=O)N[C@@H](C)CNc1nccc(-c2cn(C(C)C)nc2-c2cc(F)cc(NS(C)(=O)=O)c2F)n1` : 0.6

response.value for `CCCS(=O)(=O)Nc1cc(Cl)cc(-c2nn(C(C)C)cc2-c2ccnc(NC[C@H](C)NC(=O)OC)n2)c1` (field: IC50) = 0.2

1. CC(C)n1cc(-c2ccnc(NCCN(C)C)n2)c(-c2cc(Cl)cc(NS(C)(=O)=O)c2F)n1
2. CNc1nccc(-c2cn(C(C)C)nc2-c2cc(Cl)cc(NS(C)(=O)=O)c2F)n1
3. COC(=O)N[C@@H](C)CNc1nccc(-c2cn(C(C)C)nc2-c2cc(F)cc(NS(C)(=O)=O)c2Cl)n1
4. CCCS(=O)(=O)Nc1ccc(F)c(-c2nn(C(C)C)cc2-c2ccnc(NC[C@H](C)NC(=O)OC)n2)c1F
Exercise: Sequence the entries by IC50, beginning with the highest number. Returns: the labels listed in the requested order.
Key: 1, 2, 3, 4
(1: 90 nM, 2: 8 nM, 3: 1.1 nM, 4: 0.7 nM)
